B1: F1*; the commonest letter at each place (parent)
chain: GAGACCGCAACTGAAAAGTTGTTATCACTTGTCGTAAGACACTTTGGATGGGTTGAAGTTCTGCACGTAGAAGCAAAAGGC

Variants of: B1
ASSAY: fraction ligated after 30 min (ligated reads / total reads); higher = more ligase activity
RUN CONDITIONS: with F1*sub RNA substrate (template-directed ligation), 42 °C
Assign class by fraction ligated: not lower than 0.3 means Y; lower than 0.3 means N.

Take a look at these entries with their results.
{"MUTANT NAME": "T32A A36C", "LABEL": "Y"}
{"MUTANT NAME": "G31A A56C", "LABEL": "N"}
{"MUTANT NAME": "G50A A57G", "LABEL": "N"}
{"MUTANT NAME": "T30C G31C T32C A39G C40G A41G", "LABEL": "Y"}
{"MUTANT NAME": "T29G G34A", "LABEL": "Y"}
{"MUTANT NAME": "T45G A48C", "LABEL": "N"}

Would you kindly look at the next entry?
### Prompt State whether the measured fraction ligated reaches 0.3, counting equality as reaching it, for G34A T44C
### Response Y
